Each entry below lists one item and its recorded Stability in serum (%) value.
- assay-procedure: Stability in fresh human serum (RP-HPLC, %RCP)
- condition-set: 37 °C, 60 min, n = 3
- Experimental: [^68Ga]siderophore (50 μl, 2 nmol) was incubated in 450 μl PBS or human serum at 37 °C. At each time point, aliquot of PBS was injected directly to RP-HPLC whereas serum aliquot was mixed with MeOH, vortexed, and centrifuged at 20,000 rcf for 2 min. Supernatant was diluted with H2O and subsequently analyzed by RP-HPLC. The stability was presented as %RCP of radiotracer (n = 3).
All answers are understood in %, so give the number only.

CCC(=O)NC1CCCN(O)C(=O)C=C(C)CCOC(=O)C(NC(=O)CC)CCCN(O)C(=O)C=C(C)CCOC(=O)C(NC(=O)CC)CCCN(O)C(=O)C=C(C)CCOC1=O (stereo not shown) (68Ga complex, metal not drawn)    99.56
CC(=O)NC1CCCN(O)C(=O)C=C(C)CCOC(=O)C(NC(C)=O)CCCN(O)C(=O)C=C(C)CCOC(=O)C(NC(C)=O)CCCN(O)C(=O)C=C(C)CCOC1=O (stereo not shown) (68Ga complex, metal not drawn)    99.46
CC1=CC(=O)N(O)CCCC(NC(=O)CCC(=O)O)C(=O)OCCC(C)=CC(=O)N(O)CCCC(NC(=O)CCC(=O)O)C(=O)OCCC(C)=CC(=O)N(O)CCCC(NC(=O)CCC(=O)O)C(=O)OCC1 (stereo not shown) (68Ga complex, metal not drawn) [FSC(suc)3, trisuccinyl(FSC)]    99.43

Would you kindly look at the next entry?
Record summary for CCCC(=O)NC1CCCN(O)C(=O)C=C(C)CCOC(=O)C(NC(C)=O)CCCN(O)C(=O)C=C(C)CCOC(=O)C(NC(C)=O)CCCN(O)C(=O)C=C(C)CCOC1=O (stereo not shown) (68Ga complex, metal not drawn) : reported Stability in serum (%) = 99.59

* * *

- assay-procedure: Biodistribution in healthy BALB/c mice
- condition-set: healthy BALB/c mice, i.v., 90 min p.i.
property: excretion

CC1=CC(=O)N(O)CCCC(NC(=O)CCC(=O)O)C(=O)OCCC(C)=CC(=O)N(O)CCCC(NC(=O)CCC(=O)O)C(=O)OCCC(C)=CC(=O)N(O)CCCC(NC(=O)CCC(=O)O)C(=O)OCC1 (stereo not shown) (68Ga complex, metal not drawn) [FSC(suc)3, trisuccinyl(FSC)]    rapid renal excretion
CC(=O)NC1CCCN(O)C(=O)C=C(C)CCOC(=O)C(NC(C)=O)CCCN(O)C(=O)C=C(C)CCOC(=O)C(NC(C)=O)CCCN(O)C(=O)C=C(C)CCOC1=O (stereo not shown) (68Ga complex, metal not drawn)    rapid renal excretion
CCCC(=O)NC1CCCN(O)C(=O)C=C(C)CCOC(=O)C(NC(C)=O)CCCN(O)C(=O)C=C(C)CCOC(=O)C(NC(C)=O)CCCN(O)C(=O)C=C(C)CCOC1=O (stereo not shown) (68Ga complex, metal not drawn)    rapid renal excretion
CCC(=O)NC1CCCN(O)C(=O)C=C(C)CCOC(=O)C(NC(=O)CC)CCCN(O)C(=O)C=C(C)CCOC(=O)C(NC(=O)CC)CCCN(O)C(=O)C=C(C)CCOC1=O (stereo not shown) (68Ga complex, metal not drawn)    rapid renal excretion

* * *

Examples of compounds with documented uptake ratio to [^68Ga]TAFC follow.
- Test system: A. fumigatus wildtype (ATCC46645)
- assay-procedure: In vitro uptake assay in A. fumigatus
- Format: cell-based, Aspergillus fumigatus
- condition-set: iron-starvation condition, 45 min, normalized to [^68Ga]TAFC uptake from the same experiment, n = 3
Number only, please.

Example cases with answers are listed next.
CCCC(=O)NC1CCCN(O)C(=O)C=C(C)CCOC(=O)C(NC(C)=O)CCCN(O)C(=O)C=C(C)CCOC(=O)C(NC(C)=O)CCCN(O)C(=O)C=C(C)CCOC1=O (stereo not drawn) (68Ga complex, metal not drawn)    0.87
CCCC(=O)NC1CCCN(O)C(=O)C=C(C)CCOC(=O)C(NC(=O)CCC)CCCN(O)C(=O)C=C(C)CCOC(=O)C(NC(=O)CCC)CCCN(O)C(=O)C=C(C)CCOC1=O (stereo not drawn) (68Ga complex, metal not drawn)    0.86
CC(=O)NC1CCCN(O)C(=O)C=C(C)CCOC(=O)C(NC(=O)CCC(=O)O)CCCN(O)C(=O)C=C(C)CCOC(=O)C(NC(=O)CCC(=O)O)CCCN(O)C(=O)C=C(C)CCOC1=O (stereo not drawn) (68Ga complex, metal not drawn) [MAFC(suc)2]    0.04
C/C1=C/C(=O)N(O)CCCC(N)C(=O)OCC/C(C)=C\C(=O)N(O)CCCC(N)C(=O)OCC/C(C)=C\C(=O)N(O)CCCC(N)C(=O)OCC1 (stereo not drawn) (68Ga complex, metal not drawn)    1.37
CC1=CC(=O)N(O)CCCC(NC(=O)CN)C(=O)OCCC(C)=CC(=O)N(O)CCCC(NC(=O)CN)C(=O)OCCC(C)=CC(=O)N(O)CCCC(NC(=O)CN)C(=O)OCC1 (stereo not drawn) (68Ga complex, metal not drawn)    0.01

Please turn your attention to the following entry.
# compound CCC(=O)NC1CCCN(O)C(=O)C=C(C)CCOC(=O)C(NC(=O)CC)CCCN(O)C(=O)C=C(C)CCOC(=O)C(NC(=O)CC)CCCN(O)C(=O)C=C(C)CCOC1=O (stereo not drawn) (68Ga complex, metal not drawn) ; its uptake ratio to [^68Ga]TAFC = 1.40

* * *

Protein binding (%) values by entry
- assay-procedure: Protein binding in human serum (size exclusion spin columns)
- condition-set: 37 °C, incubation time 30 min, n = 3
Your answer is read as %, so omit the unit and give the number.

CC1=CC(=O)N(O)CCCC(NC(=O)CCC(=O)O)C(=O)OCCC(C)=CC(=O)N(O)CCCC(NC(=O)CCC(=O)O)C(=O)OCCC(C)=CC(=O)N(O)CCCC(NC(=O)CCC(=O)O)C(=O)OCC1 (stereo not shown) (68Ga complex, metal not drawn) [FSC(suc)3, trisuccinyl(FSC)]    2.53
CCCC(=O)NC1CCCN(O)C(=O)C=C(C)CCOC(=O)C(NC(C)=O)CCCN(O)C(=O)C=C(C)CCOC(=O)C(NC(C)=O)CCCN(O)C(=O)C=C(C)CCOC1=O (stereo not shown) (68Ga complex, metal not drawn)    2.63
CC(=O)NC1CCCN(O)C(=O)C=C(C)CCOC(=O)C(NC(C)=O)CCCN(O)C(=O)C=C(C)CCOC(=O)C(NC(C)=O)CCCN(O)C(=O)C=C(C)CCOC1=O (stereo not shown) (68Ga complex, metal not drawn)    2.54

# evaluate next
So for CCC(=O)NC1CCCN(O)C(=O)C=C(C)CCOC(=O)C(NC(=O)CC)CCCN(O)C(=O)C=C(C)CCOC(=O)C(NC(=O)CC)CCCN(O)C(=O)C=C(C)CCOC1=O (stereo not shown) (68Ga complex, metal not drawn) , the logged Protein binding (%) turned out to be 2.31

* * *

- assay-procedure: Small animal PET/CT imaging in non-infected Lewis rats
- condition-set: non-infected Lewis rats, r.o. injection ~6 MBq, PET/CT 45 min p.i.
The compounds listed here are annotated with their Lung uptake (non-infected).

# count of solved cases: 3
CCC(=O)NC1CCCN(O)C(=O)C=C(C)CCOC(=O)C(NC(=O)CC)CCCN(O)C(=O)C=C(C)CCOC(=O)C(NC(=O)CC)CCCN(O)C(=O)C=C(C)CCOC1=O (stereo not shown) (68Ga complex, metal not drawn)    0.20 ± 0.02 %ID/g
CCCC(=O)NC1CCCN(O)C(=O)C=C(C)CCOC(=O)C(NC(C)=O)CCCN(O)C(=O)C=C(C)CCOC(=O)C(NC(C)=O)CCCN(O)C(=O)C=C(C)CCOC1=O (stereo not shown) (68Ga complex, metal not drawn)    0.23 ± 0.03 %ID/g
CC(=O)NC1CCCN(O)C(=O)C=C(C)CCOC(=O)C(NC(C)=O)CCCN(O)C(=O)C=C(C)CCOC(=O)C(NC(C)=O)CCCN(O)C(=O)C=C(C)CCOC1=O (stereo not shown) (68Ga complex, metal not drawn)    0.20 ± 0.03 %ID/g

# ---- query compound ----
The measured Lung uptake (non-infected) associated with CC1=CC(=O)N(O)CCCC(NC(=O)CCC(=O)O)C(=O)OCCC(C)=CC(=O)N(O)CCCC(NC(=O)CCC(=O)O)C(=O)OCCC(C)=CC(=O)N(O)CCCC(NC(=O)CCC(=O)O)C(=O)OCC1 (stereo not shown) (68Ga complex, metal not drawn) [FSC(suc)3, trisuccinyl(FSC)] reads 0.21 ± 0.03 %ID/g

* * *

- assay-procedure: Stability in PBS pH 7.4 (RP-HPLC, %RCP)
- condition-set: PBS pH 7.4, 37 °C, 30 min, n = 3
- Description: [^68Ga]siderophore (50 μl, 2 nmol) was incubated in 450 μl PBS or human serum at 37 °C. At each time point, aliquot of PBS was injected directly to RP-HPLC whereas serum aliquot was mixed with MeOH, vortexed, and centrifuged at 20,000 rcf for 2 min. Supernatant was diluted with H2O and subsequently analyzed by RP-HPLC. The stability was presented as %RCP of radiotracer (n = 3).
property: Stability in PBS (%)
Write the answer as a number in %, unit excluded.

As a guide, the following entries are already answered.
CC(=O)NC1CCCN(O)C(=O)C=C(C)CCOC(=O)C(NC(C)=O)CCCN(O)C(=O)C=C(C)CCOC(=O)C(NC(C)=O)CCCN(O)C(=O)C=C(C)CCOC1=O (stereo not shown) (68Ga complex, metal not drawn) [TAFC, triacetylfusarinine C]    99.89
CCCC(=O)NC1CCCN(O)C(=O)C=C(C)CCOC(=O)C(NC(C)=O)CCCN(O)C(=O)C=C(C)CCOC(=O)C(NC(C)=O)CCCN(O)C(=O)C=C(C)CCOC1=O (stereo not shown) (68Ga complex, metal not drawn) [DABuFC, diacetylbutanoyl(FSC)]    99.87

Form: compound = CC1=CC(=O)N(O)CCCC(NC(=O)CCC(=O)O)C(=O)OCCC(C)=CC(=O)N(O)CCCC(NC(=O)CCC(=O)O)C(=O)OCCC(C)=CC(=O)N(O)CCCC(NC(=O)CCC(=O)O)C(=O)OCC1 (stereo not shown) (68Ga complex, metal not drawn) [FSC(suc)3, trisuccinyl(FSC)] ; Stability in PBS (%) = 99.85

Form field Stability in PBS (%), entry CCC(=O)NC1CCCN(O)C(=O)C=C(C)CCOC(=O)C(NC(=O)CC)CCCN(O)C(=O)C=C(C)CCOC(=O)C(NC(=O)CC)CCCN(O)C(=O)C=C(C)CCOC1=O (stereo not shown) (68Ga complex, metal not drawn) [TPFC, tripropanoyl(FSC)] : 99.90
